# Test system: Rattus norvegicus
# PROTOCOL DETAILS: Effective intraperitoneal dose in vivo in rat after 60 mins to induce lower lip retraction
# Type: functional
# ASSAY CONTEXT: ip, 1 h
Listed here: items and their measured log10 ED50.
Scale: decimal log of ED50, ED50 in mg/kg.

SMILES STR: O=C(c1ccc(Cl)c(Cl)c1)N1CCC(F)(CNCc2cccc(-c3cnco3)n2)CC1
EXPERIMENTAL RESULT: -0.49

SMILES STR: CNc1cccc(CNCC2(F)CCN(C(=O)c3ccc(Cl)c(Cl)c3)CC2)n1
EXPERIMENTAL RESULT: -0.64

SMILES STR: O=C(c1ccc(F)c(Cl)c1)N1CCC(F)(CNCc2cccc(-c3ccco3)n2)CC1
EXPERIMENTAL RESULT: -0.96

SMILES STR: O=C(c1ccc(Cl)c(Cl)c1)N1CCC(F)(CNCc2cccc(-c3cc[nH]n3)n2)CC1
EXPERIMENTAL RESULT: -0.49

SMILES STR: CN(C)c1cccc(CNCC2(F)CCN(C(=O)c3cccc(Cl)c3)CC2)n1
EXPERIMENTAL RESULT: -0.96

Prompt: I'd like to know its log10 ED50. The compound in question is "Cc1ccc(C(=O)N2CCC(F)(CNCc3cccc(N(C)C)n3)CC2)cc1Cl"
Completion: -1.10

Prompt: Repeat for the following compound: "O=C(c1ccc(Cl)c(Cl)c1)N1CCC(F)(CNCc2cccc(-c3nccs3)n2)CC1"
Completion: -0.05

Prompt: Repeat for the following compound: "O=C(c1ccc(Cl)c(Cl)c1)N1CCC(F)(CNCc2cccc(-c3cccs3)n2)CC1"
Completion: -0.49

Prompt: Repeat for the following compound: "CN(C)c1cccc(CNCC2(F)CCN(C(=O)c3ccc(Cl)c(Cl)c3)CC2)n1"
Completion: -0.35

Prompt: Repeat for the following compound: "CN(C)c1cccc(CNCC2(F)CCN(C(=O)c3ccc(F)c(Cl)c3)CC2)n1"
Completion: -0.96

Prompt: Repeat for the following compound: "O=C(c1ccc(Cl)c(Cl)c1)N1CCC(F)(CNCc2cccc(-c3ccco3)n2)CC1"
Completion: -0.64

Prompt: Repeat for the following compound: "O=C(c1ccc(Cl)c(Cl)c1)N1CCC(F)(CNCc2cccc(N3CCC3)n2)CC1"
Completion: -0.35
